Assay: Half life in Beagle dog at 1 mg/kg, iv by LC-MS/MS analysis
Format: ADME, organism-based, Canis lupus familiaris
Conditions: in vivo
Quantity: half-life (min)
State the answer as a number, implicitly in min.

Given item C[C@@H](Oc1cc2onc(CCC(=O)O)c2cc1Cl)c1ccccn1 [GSK-065] , the value recorded as its half-life is 348

###

Assay: Volume of distribution in Beagle dog at 1 mg/kg, iv by LC-MS/MS analysis
Type: ADME, organism-based, Canis lupus familiaris
Conditions: in vivo
Quantity: Vd
Kindly format the answer as number then unit.

Given item C[C@@H](Oc1cc2onc(CCC(=O)O)c2cc1Cl)c1ccccn1 , the value recorded as its Vd is 0.36 L/kg
